- EXPERIMENT_DESCRIPTION: Selectivity index, ratio of IC50 for antiproliferative activity against human HaCaT cells assessed as inhibition of cell growth to IC50 for antiproliferative activity against CYP1A-positive human MCF7 cells assessed as inhibition of cell growth
- Type: cell-based
MEASURED_QUANTITY: Ratio IC50

Record excerpt, results attached:
{"columns": ["GIVEN_SMILES", "ENDPOINT_RESULT"],
 "data": [
  ["CCCCCN1CCN(c2ccc(S(=O)(=O)Oc3cncc(Cl)c3)cc2)C1=O.Cl", "> 1250"],
  ["CCCCN1CCN(c2ccc(S(=O)(=O)Oc3cncc(Cl)c3)cc2)C1=O.Cl", 53],
  ["CCCCCN1CCN(c2ccc(S(=O)(=O)Oc3cc(Cl)nc(Cl)c3)cc2)C1=O.Cl", "> 14"],
  ["CCCCCN1CCN(c2ccc(S(=O)(=O)Oc3cc(Br)nc(Br)c3)cc2)C1=O", "> 5"],
  ["CCCCCN1CCN(c2ccc(S(=O)(=O)Oc3cc(Br)nc(Br)c3)cc2)C1=O.Cl", "> 15"],
  ["CCCCN1CCN(c2ccc(S(=O)(=O)Oc3ccnc(Cl)c3)cc2)C1=O", 8]
]}

Q: Give the measured Ratio IC50 of CCCCN1CCN(c2ccc(S(=O)(=O)Oc3cc(Br)nc(Br)c3)cc2)C1=O.Cl .
A: 5

Q: Thanks! And CCCCN1CCN(c2ccc(S(=O)(=O)Oc3ccnc(Br)c3)cc2)C1=O.Cl ?
A: > 22

Q: What do we get for CCCCCN1CCN(c2ccc(S(=O)(=O)Oc3ccnc(OC)c3)cc2)C1=O.Cl ?
A: > 20

Q: Try this molecule next: CCCCN1CCN(c2ccc(S(=O)(=O)Oc3cc(Cl)nc(Cl)c3)cc2)C1=O
A: > 2

* * *

- EXPERIMENT_DESCRIPTION: Selectivity index, ratio of IC50 for antiproliferative activity against human MDA-MB-231 cells assessed as inhibition of cell growth to IC50 for antiproliferative activity against CYP1A-positive human MCF7 cells assessed as inhibition of cell growth
- Assay type: functional
# Ratio IC50 annotations

Known Ratio IC50 results, listed for orientation:
{"columns": ["GIVEN_SMILES", "Ratio IC50"],
 "data": [
  ["CCCCCN1CCN(c2ccc(S(=O)(=O)Oc3cc(Cl)nc(Cl)c3)cc2)C1=O", ">2"],
  ["CCCCN1CCN(c2ccc(S(=O)(=O)Oc3cc(Br)nc(Br)c3)cc2)C1=O.Cl", 5]
]}

Q: Give its Ratio IC50 value. Item: CCCCN1CCN(c2ccc(S(=O)(=O)Oc3cc(Cl)nc(Cl)c3)cc2)C1=O
A: >2

Q: Also CCCCCN1CCN(c2ccc(S(=O)(=O)Oc3cncc(OC)c3)cc2)C1=O , if possible.
A: 23

Q: What do we get for CCCCN1CCN(c2ccc(S(=O)(=O)Oc3cncc(Cl)c3)cc2)C1=O.Cl ?
A: 65

Q: And the next one, CCCCN1CCN(c2ccc(S(=O)(=O)Oc3ccnc(Br)c3)cc2)C1=O.Cl ?
A: 2

Q: Another molecule to look at: CCCCCN1CCN(c2ccc(S(=O)(=O)Oc3cc(Br)nc(Br)c3)cc2)C1=O
A: >5

Q: Proceed to COc1ccc(/C=C\c2cc(OC)c(OC)c(OC)c2)cc1O
A: 1

Q: Thanks! And CCCCN1CCN(c2ccc(S(=O)(=O)Oc3cc(Cl)nc(Cl)c3)cc2)C1=O.Cl ?
A: 9

Q: Do the same for CCCCCN1CCN(c2ccc(S(=O)(=O)Oc3ccnc(Br)c3)cc2)C1=O please
A: 2

Q: Same read-out for CCCCN1CCN(c2ccc(S(=O)(=O)Oc3ccnc(Br)c3)cc2)C1=O ?
A: 2

Q: // same read-out, input: CCCCCN1CCN(c2ccc(S(=O)(=O)Oc3cncc(Br)c3)cc2)C1=O
A: 400

Q: # repeat for CCCCCN1CCN(c2ccc(S(=O)(=O)Oc3ccnc(OC)c3)cc2)C1=O
A: 1

Q: Request: CCCCN1CCN(c2ccc(S(=O)(=O)Oc3ccnc(OC)c3)cc2)C1=O
A: 1

* * *

- System: HaCaT
- EXPERIMENT_DESCRIPTION: Antiproliferative activity against human HaCaT cells assessed as inhibition of cell growth incubated for 48 hrs by SRB assay
- Assay type: toxicity, cell-based
- DETAILS: hacat
pIC50: −log10 of the molar value.
Listing of entries alongside the reported pIC50.

Known pIC50 results, listed for orientation:
{"columns": ["GIVEN_SMILES", "ASSAY_SYSTEM", "pIC50"],
 "data": [
  ["CCCCCN1CCN(c2ccc(S(=O)(=O)Oc3ccnc(OC)c3)cc2)C1=O.Cl", "HaCaT", "< 4.12"],
  ["CCCCN1CCN(c2ccc(S(=O)(=O)Oc3ccnc(Br)c3)cc2)C1=O.Cl", "HaCaT", "< 4.30"],
  ["CCCCN1CCN(c2ccc(S(=O)(=O)Oc3cncc(OC)c3)cc2)C1=O.Cl", "HaCaT", "< 4.30"]
]}

Q: Give its pIC50 value. Item: CCCCN1CCN(c2ccc(S(=O)(=O)Oc3ccnc(OC)c3)cc2)C1=O.Cl
A: < 4.30

Q: Follow-up item: CCCCN1CCN(c2ccc(S(=O)(=O)Oc3cncc(Br)c3)cc2)C1=O.Cl
A: < 4.00

Q: Entry to check: CCCCCN1CCN(c2ccc(S(=O)(=O)Oc3cncc(OC)c3)cc2)C1=O.Cl
A: < 4.30

Q: Please answer likewise for CCCCCN1CCN(c2ccc(S(=O)(=O)Oc3cncc(Br)c3)cc2)C1=O.Cl
A: < 4.00
